Target: Adenosine receptor A2a (Homo sapiens, UniProt P29274)
Sequence (P29274 whole entry): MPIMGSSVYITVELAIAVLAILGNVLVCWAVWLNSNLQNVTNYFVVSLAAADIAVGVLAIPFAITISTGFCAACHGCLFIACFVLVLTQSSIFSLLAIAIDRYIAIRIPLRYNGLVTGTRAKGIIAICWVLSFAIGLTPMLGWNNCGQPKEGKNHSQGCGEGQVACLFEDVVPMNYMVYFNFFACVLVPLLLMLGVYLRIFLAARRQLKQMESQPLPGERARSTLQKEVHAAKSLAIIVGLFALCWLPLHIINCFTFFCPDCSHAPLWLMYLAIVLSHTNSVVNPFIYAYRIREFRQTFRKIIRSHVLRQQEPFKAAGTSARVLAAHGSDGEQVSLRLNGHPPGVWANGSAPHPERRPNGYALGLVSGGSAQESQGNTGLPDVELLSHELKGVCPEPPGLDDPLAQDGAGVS
Assay: Displacement of [3H]CGS21680 from human recombinant adenosine A2A receptor expressed in HEK293 cells after 60 mins by liquid scintillation counting
Provide the recorded Ki for the entries that follow.
Give bare numbers, in nM.

{"line_notation": "O[C@@H]1[C@H](O)[C@@H]2C[C@@H]2[C@H]1n1cnc2c(NCc3cccc(Cl)c3)nc(C#Cc3cccc(Cl)c3)nc21", "measured_metric": "Ki", "reported_value": 1800}
{"line_notation": "O[C@@H]1[C@H](O)[C@@H]2C[C@@H]2[C@H]1n1cnc2c(NCc3cccc(Cl)c3)nc(C#Cc3ccccc3)nc21", "measured_metric": "Ki", "reported_value": 680}

The record that follows has no Ki shown yet.
Enquiry: Return Ki (reported value) for this compound: O[C@@H]1[C@H](O)[C@@H]2C[C@@H]2[C@H]1n1cnc2c(NCc3cccc(Cl)c3)nc(C#Cc3ccc(F)c(F)c3)nc21
Return: 1350

###

Molecular target: Adenosine receptor A3 (Homo sapiens)
Sequence (P0DMS8 whole entry): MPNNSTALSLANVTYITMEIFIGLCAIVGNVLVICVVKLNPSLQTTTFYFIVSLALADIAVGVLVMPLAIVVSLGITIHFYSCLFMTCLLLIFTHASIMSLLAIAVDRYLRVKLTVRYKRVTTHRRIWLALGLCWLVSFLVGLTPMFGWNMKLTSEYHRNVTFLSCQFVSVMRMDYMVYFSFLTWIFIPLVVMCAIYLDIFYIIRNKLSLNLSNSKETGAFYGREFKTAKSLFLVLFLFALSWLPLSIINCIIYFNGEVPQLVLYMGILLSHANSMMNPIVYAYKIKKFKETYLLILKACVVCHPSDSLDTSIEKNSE
Experiment: Displacement of [3H]I-AB-MECA from human recombinant adenosine A3 receptor expressed in CHO cells after 60 mins by liquid scintillation counting
measured_metric: Ki (nM)
One number for each entry, in nM.

Some entries whose results are on file:
{"line_notation": "CONc1nc(C#Cc2ccccc2Cl)nc2c1ncn2[C@H]1[C@H](O)[C@H](O)[C@@H]2C[C@@H]21", "quantity_unit": "nM", "Ki": 8.52}
{"line_notation": "CNc1nc(C#Cc2ccccc2)nc2c1ncn2[C@H]1[C@H](O)[C@H](O)[C@@H]2C[C@@H]21", "quantity_unit": "nM", "Ki": 5.48}
{"line_notation": "CCNc1nc(C#Cc2ccccc2Cl)nc2c1ncn2[C@H]1[C@H](O)[C@H](O)[C@@H]2C[C@@H]21", "quantity_unit": "nM", "Ki": 5.8}
{"line_notation": "CCNc1nc(C#Cc2ccccc2)nc2c1ncn2[C@H]1[C@H](O)[C@H](O)[C@@H]2C[C@@H]21", "quantity_unit": "nM", "Ki": 5.02}
{"line_notation": "O[C@@H]1[C@H](O)[C@@H]2C[C@@H]2[C@H]1n1cnc2c(NCC(c3ccccc3)c3ccccc3)nc(C#Cc3ccccc3)nc21", "quantity_unit": "nM", "Ki": 200}

Can you give me Ki for all of these, one by one?
1. CONc1nc(C#Cc2ccccc2)nc2c1ncn2[C@H]1[C@H](O)[C@H](O)[C@@H]2C[C@@H]21
2. O[C@@H]1[C@H](O)[C@@H]2C[C@@H]2[C@H]1n1cnc2c(NCc3cccc(Cl)c3)nc(C#Cc3ccc(F)c(F)c3)nc21

Return:
[13, 100]

###

Organism: Homo sapiens
Test: Selectivity ratio of inhibition of human adenosine A2A receptor to Ki for human adenosine A3 receptor
measured_metric: Selectivity ratio

Here are 2 molecules together with their reported answers.
{"line_notation": "CNc1nc(C#Cc2ccccc2Cl)nc2c1ncn2[C@H]1[C@H](O)[C@H](O)[C@@H]2C[C@@H]21", "Selectivity ratio": "> 1000"}
{"line_notation": "CCNc1nc(C#Cc2ccccc2Cl)nc2c1ncn2[C@H]1[C@H](O)[C@H](O)[C@@H]2C[C@@H]21", "Selectivity ratio": "> 1000"}

# return Selectivity ratio for each item in the list
1. CNc1nc(C#Cc2ccccc2)nc2c1ncn2[C@H]1[C@H](O)[C@H](O)[C@@H]2C[C@@H]21
2. O[C@@H]1[C@H](O)[C@@H]2C[C@@H]2[C@H]1n1cnc2c(NCc3cccc(Cl)c3)nc(C#Cc3cccc(Cl)c3)nc21

Return:
> 2000
8.6

###

So I've got a bunch of compounds here, and I need their inhibition values.
Target: Adenosine receptor A1 (Homo sapiens)
Assay: Displacement of [3H]PIA from human recombinant adenosine A1 receptor expressed in CHO cells at 10 uM after 60 mins by liquid scintillation counting
Format: cell-based
Answer with the figure and its unit, nothing else.

Below: 3 compounds and their reported inhibition.
{"line_notation": "CNc1nc(C#Cc2ccccc2)nc2c1ncn2[C@H]1[C@H](O)[C@H](O)[C@@H]2C[C@@H]21", "inhibition": "18%"}
{"line_notation": "CCNc1nc(C#Cc2ccccc2)nc2c1ncn2[C@H]1[C@H](O)[C@H](O)[C@@H]2C[C@@H]21", "inhibition": "36%"}
{"line_notation": "O[C@@H]1[C@H](O)[C@@H]2C[C@@H]2[C@H]1n1cnc2c(NCCc3ccccc3)nc(C#Cc3ccccc3)nc21", "inhibition": "30%"}

// for each compound below, give its inhibition
1. CONc1nc(C#Cc2ccccc2Cl)nc2c1ncn2[C@H]1[C@H](O)[C@H](O)[C@@H]2C[C@@H]21
2. CCNc1nc(C#Cc2ccccc2Cl)nc2c1ncn2[C@H]1[C@H](O)[C@H](O)[C@@H]2C[C@@H]21
3. CNc1nc(C#Cc2ccccc2Cl)nc2c1ncn2[C@H]1[C@H](O)[C@H](O)[C@@H]2C[C@@H]21
4. O[C@@H]1[C@H](O)[C@@H]2C[C@@H]2[C@H]1n1cnc2c(NCC(c3ccccc3)c3ccccc3)nc(C#Cc3ccccc3Cl)nc21

Return:
30%
25%
35%
26%

// each compound listed below needs its inhibition
1. O[C@@H]1[C@H](O)[C@@H]2C[C@@H]2[C@H]1n1cnc2c(NCc3cccc(Cl)c3)nc(C#Cc3ccc(F)c(F)c3)nc21
2. O[C@@H]1[C@H](O)[C@@H]2C[C@@H]2[C@H]1n1cnc2c(NCc3cccc(Cl)c3)nc(C#Cc3cccc(Cl)c3)nc21

Return:
["29%", "26%"]

###

Target: Adenosine receptor A1 (Homo sapiens) (UniProt P30542)
Sequence (whole entry): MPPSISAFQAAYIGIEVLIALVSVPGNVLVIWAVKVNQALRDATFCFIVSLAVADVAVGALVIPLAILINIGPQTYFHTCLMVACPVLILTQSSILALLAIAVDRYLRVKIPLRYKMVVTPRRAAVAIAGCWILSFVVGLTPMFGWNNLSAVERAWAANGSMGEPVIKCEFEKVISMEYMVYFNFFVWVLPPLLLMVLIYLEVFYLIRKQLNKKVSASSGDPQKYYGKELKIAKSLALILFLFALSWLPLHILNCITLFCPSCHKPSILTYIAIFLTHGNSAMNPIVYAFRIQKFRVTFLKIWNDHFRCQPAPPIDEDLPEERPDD
Experiment: Displacement of [3H]PIA from human recombinant adenosine A1 receptor expressed in CHO cells at 10 uM after 60 mins by liquid scintillation counting
Format: cell-based
Classification field: label 1 = inhibition at or over 30%; label 0 = inhibition under 30%.

{"line_notation": "O[C@@H]1[C@H](O)[C@@H]2C[C@@H]2[C@H]1n1cnc2c(NCc3cccc(Cl)c3)nc(C#Cc3ccc(-c4ccccc4)cc3)nc21", "qualitative_label": "label 1"}
{"line_notation": "O[C@@H]1[C@H](O)[C@@H]2C[C@@H]2[C@H]1n1cnc2c(NCC(c3ccccc3)c3ccccc3)nc(C#Cc3ccccc3)nc21", "qualitative_label": "label 0"}
{"line_notation": "O[C@@H]1[C@H](O)[C@@H]2C[C@@H]2[C@H]1n1cnc2c(NCC(c3ccccc3)c3ccccc3)nc(C#Cc3ccc(F)c(F)c3)nc21", "qualitative_label": "label 0"}
{"line_notation": "O[C@@H]1[C@H](O)[C@@H]2C[C@@H]2[C@H]1n1cnc2c(NCc3cccc(Cl)c3)nc(C#Cc3ccccc3)nc21", "qualitative_label": "label 1"}
{"line_notation": "O[C@@H]1[C@H](O)[C@@H]2C[C@@H]2[C@H]1n1cnc2c(NCC(c3ccccc3)c3ccccc3)nc(C#Cc3ccc(-c4ccccc4)cc3)nc21", "qualitative_label": "label 0"}

Alright, here's another compound for you.
Enquiry: Reported inhibition at or above 30%? O[C@@H]1[C@H](O)[C@@H]2C[C@@H]2[C@H]1n1cnc2c(NCC(c3ccccc3)c3ccccc3)nc(C#Cc3cccc(Cl)c3)nc21
Return: label 0

###

Molecular target: Adenosine receptor A2a (Homo sapiens, UniProt P29274)
Experiment: Displacement of [3H]CGS21680 from human recombinant adenosine A2A receptor expressed in HEK293 cells at 10 uM after 60 mins by liquid scintillation counting
Assay type: cell-based
Exercise: state measured inhibition for each of the molecules provided.
Give bare numbers, in %.

{"line_notation": "CNc1nc(C#Cc2ccccc2)nc2c1ncn2[C@H]1[C@H](O)[C@H](O)[C@@H]2C[C@@H]21", "system_tested": "Adenosine receptor A2a (Homo sapiens, UniProt P29274)", "inhibition, %": 18}
{"line_notation": "O[C@@H]1[C@H](O)[C@@H]2C[C@@H]2[C@H]1n1cnc2c(NCc3cccc(Cl)c3)nc(C#Cc3ccc(-c4ccccc4)cc3)nc21", "system_tested": "Adenosine receptor A2a (Homo sapiens, UniProt P29274)", "inhibition, %": 12}
{"line_notation": "O[C@@H]1[C@H](O)[C@@H]2C[C@@H]2[C@H]1n1cnc2c(NCC(c3ccccc3)c3ccccc3)nc(C#Cc3ccccc3Cl)nc21", "system_tested": "Adenosine receptor A2a (Homo sapiens, UniProt P29274)", "inhibition, %": 22}
{"line_notation": "O[C@@H]1[C@H](O)[C@@H]2C[C@@H]2[C@H]1n1cnc2c(NCC(c3ccccc3)c3ccccc3)nc(C#Cc3cccc(Cl)c3)nc21", "system_tested": "Adenosine receptor A2a (Homo sapiens, UniProt P29274)", "inhibition, %": 13}
{"line_notation": "CONc1nc(C#Cc2ccccc2Cl)nc2c1ncn2[C@H]1[C@H](O)[C@H](O)[C@@H]2C[C@@H]21", "system_tested": "Adenosine receptor A2a (Homo sapiens, UniProt P29274)", "inhibition, %": 22}
{"line_notation": "CCNc1nc(C#Cc2ccccc2Cl)nc2c1ncn2[C@H]1[C@H](O)[C@H](O)[C@@H]2C[C@@H]21", "system_tested": "Adenosine receptor A2a (Homo sapiens, UniProt P29274)", "inhibition, %": 17}
{"line_notation": "O[C@@H]1[C@H](O)[C@@H]2C[C@@H]2[C@H]1n1cnc2c(NCCc3ccccc3)nc(C#Cc3ccccc3)nc21", "system_tested": "Adenosine receptor A2a (Homo sapiens, UniProt P29274)", "inhibition, %": 22}
{"line_notation": "CNc1nc(C#Cc2ccccc2Cl)nc2c1ncn2[C@H]1[C@H](O)[C@H](O)[C@@H]2C[C@@H]21", "system_tested": "Adenosine receptor A2a (Homo sapiens, UniProt P29274)", "inhibition, %": 37}

Provide the reported inhibition of each entry below, same order.
1. O[C@@H]1[C@H](O)[C@@H]2C[C@@H]2[C@H]1n1cnc2c(NCC(c3ccccc3)c3ccccc3)nc(C#Cc3ccc(-c4ccccc4)cc3)nc21
2. CCNc1nc(C#Cc2ccccc2)nc2c1ncn2[C@H]1[C@H](O)[C@H](O)[C@@H]2C[C@@H]21
3. O[C@@H]1[C@H](O)[C@@H]2C[C@@H]2[C@H]1n1cnc2c(NCC(c3ccccc3)c3ccccc3)nc(C#Cc3ccccc3)nc21
4. O[C@@H]1[C@H](O)[C@@H]2C[C@@H]2[C@H]1n1cnc2c(NCC(c3ccccc3)c3ccccc3)nc(C#Cc3ccc(F)c(F)c3)nc21
5. O[C@@H]1[C@H](O)[C@@H]2C[C@@H]2[C@H]1n1cnc2c(NCc3cccc(Cl)c3)nc(C#Cc3ccccc3Cl)nc21

Return:
1. 13
2. 42
3. 24
4. 20
5. 40
